- Test system: MDA-MB-231
- assay_notes: cells
- experimental_conditions: Homo sapiens, MDA-MB-231, 48 h
pIC50: −log10 of the molar value.
observable: pIC50

1. COc1cc(-c2nc3ccccc3n3c(/N=C/c4ccc(N(C)C)cc4)c(C#N)nc23)cc(OC)c1OC = 5.19

I: COc1cccc(/C=N/c2c(C#N)nc3c(-c4cc(OC)c(OC)c(OC)c4)nc4ccccc4n23)c1
II: COc1cc(-c2nc3ccccc3n3c(/N=C/c4cc(F)ccc4[N+](=O)[O-])c(C#N)nc23)cc(OC)c1OC
Query block: I'd appreciate it if you could identify which of I and II has the greater pIC50. Answer by stating the label of the chosen item.
Result block: I

###

- System: MCF7
- assay_notes: cells
- experimental_conditions: Homo sapiens, MCF7, 48 h
pIC50: −log10 of the molar value.
observable: pIC50

Solved cases (5 shown):
1. COc1cc(-c2nc3ccccc3n3c(/N=C/c4ccsc4)c(C#N)nc23)cc(OC)c1OC = 4.84
2. COc1cc(-c2nc3ccccc3n3c(/N=C/c4ccncc4)c(C#N)nc23)cc(OC)c1OC = 4.88
3. COc1cc(-c2nc3ccccc3n3c(/N=C/c4ccc(N(C)C)cc4)c(C#N)nc23)cc(OC)c1OC = 4.62
4. COc1cccc(/C=N/c2c(C#N)nc3c(-c4cc(OC)c(OC)c(OC)c4)nc4ccccc4n23)c1 = 4.87
5. COc1cc(-c2nc3ccccc3n3c(/N=C/c4c[nH]c5ccccc45)c(C#N)nc23)cc(OC)c1OC = 5.05

a: COc1cc(-c2nc3ccccc3n3c(/N=C/c4cc(F)ccc4[N+](=O)[O-])c(C#N)nc23)cc(OC)c1OC
b: COc1cc(-c2nc3ccccc3n3c(/N=C/c4ccc(Cl)cc4)c(C#N)nc23)cc(OC)c1OC
c: COc1cc(-c2nc3ccccc3n3c(/N=C/c4cccnc4)c(C#N)nc23)cc(OC)c1OC
Query block: Please give the order of these molecules when sorted by pIC50, largest value leading. In plain terms: list the labels in the order you were asked to.
Result block: b, a, c

###

- Tested on: MDA-MB-231
- assay_notes: cells
- experimental_conditions: Homo sapiens, MDA-MB-231, 48 h
pIC50: −log10 of the molar value.
observable: pIC50

1) COc1cc(-c2nc3ccccc3n3c(/N=C/c4ccc(Cl)cc4)c(C#N)nc23)cc(OC)c1OC = 5.23
2) COc1cc(-c2nc3ccccc3n3c(/N=C/c4cccnc4)c(C#N)nc23)cc(OC)c1OC = 5.06
3) COc1cc(-c2nc3ccccc3n3c(/N=C/c4ccncc4)c(C#N)nc23)cc(OC)c1OC = 5.05
